molecular target: T1, human TMEM106B (human, UniProt Q9NUM4 2-274); test: FACS U251
T1 construct: full-length, transiently expressed on HEK293 cells, or natively expressed on HeLa, U251 and A549 cells (the cell is named under assay); also the source of the Pepscan peptides; also called huTMEM106B; huTMEM
MFI values, listed per item
// return numeric value only (unit: MFI, not printed)

Worked examples, 4 binders total:
- BINDER: "TM-6 (antibody, V domains shown, mouse IgG (hybridoma)) VH: QVQLQQSGAELVKPGASVKLSCKASGYTFTEYTIHWVKQRSGQGLEWIGWFYPGSTYIDYNEKFKDKATLTADKSSSTVYLELSRLTSEDSAVYFCARHEEDYSNWFPFWGQGTLVTVSA VL: DIQMSQSSSYLSVSLGGRVTITCKASDHINNWLAWYQQKPGNAPRLLISGATSLETGVPSRFSGSGSGKDYTLSITSLQTEDVATYYCQQYWSSPYTFGGGTKLEIK"
  DATA_VALUE: 304
- BINDER: "TM-15 (antibody, V domains shown, mouse IgG (hybridoma)) VH: QVQLQQPGAEFVRPGASVKLSCKASGYTFTNYWITWVKQRPGHGLEWIGDIYPGSGNSNYNESFKRKATLTVDTSSSTAYMHLSSQTSEDSAVYFCARKAYGGFPYWGQGTLVTVSA VL: DIQMTQSPASLSVSVGETVTITCRVSENIYNNLAWYQQKQEKSPQLLVFAATNLADGVPSRFSGSGSGTQFSLKINSLQSEDFGTYYCQHFWDTPFTFGSGTKLEIK"
  DATA_VALUE: 382
- BINDER: "TM-2 (antibody, V domains shown) VH: HIQLVQSGPELKKPGETVKISCKASGYTFTEYPMHWVKQAPGKGFRWMGMIYTNTGEPTYAAEFKGRFAFSLETSASTGYLQINNLKNEDSATYFCVTAGYWGQGTLVTVSA VL: QIVLTQSPAILSASPGEKVTMTCRASSSVSYIHWFLQKPGSSPKPWIYATSNLASGVPFRFIGSGSGTSYSLTISGVEAEDSATYYCQQWSSNPSTFGAGTKLELK"
  DATA_VALUE: 1410
- BINDER: "TM-52 (antibody, V domains shown, mouse IgG (hybridoma)) VH: QVQLQQPGAELVKPGASVKLSCKASGYTFTNYWMHWVKQRPGQGLDWIGNIDPSDSETHYNQKFKDKATLTVDKVSSTAYMQLSSLTSEDSAVYYCARRGYYGRSPFAYWGQGTLVTVSA VL: ENVLTQSPAIMSASPGEKVTMTCSASSSVSYMHWYQQKSNTSPKLWIYDTSKLASGVPGRFSGSGSGNSYSLTISSAEAEDVATYYCFQGSGYPLTFGAGTKLELK"
  DATA_VALUE: 341

Kindly indicate its recorded MFI. Item: TM-16 (antibody, V domains shown) VH: EVQLQQSGAELVRPGASVKLSCTTSGFNIKDYYMHWVKQRTEQGLEWIGRIDPEDGETKYAPEFQGKATITSDTSSNTAFLQLSSLTSEDTAVYYCASSQPFTYWGQGTLVTVSA VL: QIVLTQSPAIMSASPGEKLTMTCSASSSLNYMYWYQQKPGSSPRLLIYDTSNLASGVPVRFSGSGSGTSYSLTISRMEAEDGATYYCQQWTSFPPTFGAGTKLELK
292

Hey, just so you know, these numbers are from patent US20200339680A1.
